B1: EHEE_rd4_0726 (parent)
chain: DIEITTNGEEDAKRVIKELQKRNLEYHIEVHGNQWVIKVR

variants of: B1; test: folding stability dG (cDNA display proteolysis); higher = more stable; conditions: PBS, room temperature
experimental-endpoint: folding stability dG (kcal/mol)
Please respond with the number in kcal/mol and leave the unit unwritten.

[
  {
    "variant-annotation": "V39Q",
    "data-value": -0.263
  },
  {
    "variant-annotation": "E9K",
    "data-value": 2.06
  },
  {
    "variant-annotation": "Y26L",
    "data-value": 1.35
  }
]

Please report the measured folding stability dG for `T5S`
1.96
